Assignment: determine reported inhibition (INH) for the given molecules.
Tested on: Oryctolagus cuniculus
Experiment: Anti-ischemic activity in anesthetized New Zealand rabbit heart assessed as reduction in ischemia-induced ST segment elevation by measuring MAPD90_ATX levels at 1 uM plasma concentration at 0.1 to 0.4 mg/kg, iv bolus dose dosed 30 mins before ischemia followed by reperfusion
Assay type: functional
Write your answer as a measured quantity: the number, then the unit.

| SUBSTANCE SMILES | MEASURED TARGET | ENDPOINT RESULT |
| --- | --- | --- |
| COc1cc(OC)nc(CN2CCOc3ccc(-c4ccc(OC(F)(F)F)cc4)cc3C2=O)n1 | Oryctolagus cuniculus | -27% |
| O=C1c2cc(-c3ccc(OC(F)(F)F)cc3)ccc2OCCN1Cc1ccc2ccccc2n1 | Oryctolagus cuniculus | -10% |
| O=C1c2cc(-c3ccc(OC(F)(F)F)cc3)ccc2OCCN1Cc1ncccn1 | Oryctolagus cuniculus | -56% |
| O=C1c2cc(-c3ccc(C(F)(F)F)cc3)ccc2OCCN1Cc1ncccn1 | Oryctolagus cuniculus | -62% |
| O=C1c2cc(-c3ccc(Cl)cc3)ccc2OCCN1Cc1ncccn1 | Oryctolagus cuniculus | -69% |
| O=C(c1ncccn1)N1CCOc2ccc(-c3ccc(OC(F)(F)F)cc3)cc2C1 | Oryctolagus cuniculus | -47% |
| O=C1c2cc(-c3ccc(C(F)(F)F)cc3)ccc2OCCN1Cc1cn2ccccc2n1 | Oryctolagus cuniculus | -49% |
| O=C1c2cc(-c3ccc(OC(F)(F)F)cc3)ccc2OCCN1Cn1cc(Cl)cn1 | Oryctolagus cuniculus | -23% |

Report inhibition (INH) for each item below.
1. O=C1c2cc(C#Cc3ccc(C(F)(F)F)cc3)ccc2OCCN1Cc1ncccn1
2. CC(C)(C)c1ccc(-c2ccc3c(c2)C(=O)N(Cc2ncccn2)CCO3)cc1
3. O=C1c2cc(C#Cc3ccc(OC(F)(F)F)cc3)ccc2OCCN1Cc1ncccn1
4. Cc1ccnc(CN2CCOc3cnc(-c4ccc(OC(F)(F)F)cc4)cc3C2=O)n1

1. -49%
2. -50%
3. -25%
4. -34%
